B1: tRNA (parent)
chain: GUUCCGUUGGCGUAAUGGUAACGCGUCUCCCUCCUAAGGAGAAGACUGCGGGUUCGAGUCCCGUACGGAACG

# Variants of: B1
# assay-remarks: yeast fitness, log relative to wild type (ln ratio); higher = fitter; tRNA-Arg(CCU), competitive growth, 37 C, 1 M NaCl
Give measured yeast fitness (ln) for each item. Keep answers brief.
Give bare numbers.

mutation-key: U2G G6A C27U C46U C66A A69G A70G C71U
yeast fitness (ln): -0.251

Items follow; give yeast fitness (ln) for each.
1. U2G G6U C66A A70U
2. G6U A43C C46U C66A C71U
3. U2G G6U C46U A69G A70G
4. U2C A43C C46U C66A A70G

[0.00254, -0.0527, -0.109, -0.058]
